testTarget: Cytochrome P450 1B1 (Homo sapiens, UniProt Q16678)
Sequence (Q16678 whole entry): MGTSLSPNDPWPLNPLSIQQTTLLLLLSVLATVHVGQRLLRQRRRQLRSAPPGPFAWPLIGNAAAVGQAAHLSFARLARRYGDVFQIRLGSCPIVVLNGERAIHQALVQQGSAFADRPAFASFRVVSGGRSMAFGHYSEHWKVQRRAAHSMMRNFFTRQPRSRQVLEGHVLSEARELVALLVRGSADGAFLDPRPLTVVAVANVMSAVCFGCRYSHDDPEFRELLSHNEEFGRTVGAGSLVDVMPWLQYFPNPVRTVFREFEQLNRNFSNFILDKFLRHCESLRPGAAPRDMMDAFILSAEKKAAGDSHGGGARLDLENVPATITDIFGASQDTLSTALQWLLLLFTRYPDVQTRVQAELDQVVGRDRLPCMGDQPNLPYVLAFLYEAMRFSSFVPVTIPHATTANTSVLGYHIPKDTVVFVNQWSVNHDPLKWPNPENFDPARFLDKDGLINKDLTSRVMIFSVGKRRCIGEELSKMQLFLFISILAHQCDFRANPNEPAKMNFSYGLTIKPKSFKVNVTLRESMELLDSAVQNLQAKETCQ
assay: Inhibition of human Cytochrome P450 1B1 expressed in bacterial membrane
Type: ADME, cell membranes
measuredMetric: IC50
Answer by giving the amount and then stating its unit.

Item: COc1ccc2[nH]c3c(c2c1)CCn1c-3nc2ccccc2c1=O | IC50: 84 nM

---

assay: Ratio for inhibition of Cytochrome P450 1A1 to that of Cytochrome P450 1A2
Type: ADME
For each entry below, report its ratio value.
Response field accepts a number only; no unit should be typed.

Kindly note the recorded ratio for COc1cc(OC)c2nc3n(c(=O)c2c1)CCc1c-3[nH]c2ccccc12 , which is 11

Record COc1ccc2c3c([nH]c2c1)-c1nc2ccccc2c(=O)n1CC3 . Reported ratio: 1

// recorded ratio for O=c1c2ccc(Cl)cc2nc2n1CCc1c-2[nH]c2ccccc12 : 30

Notebook: COc1cccc2c(=O)n3c(nc12)-c1[nH]c2ccccc2c1CC3 , ratio read as 45

Kindly note the recorded ratio for O=c1c2ccccc2nc2n1CCc1c-2[nH]c2ccccc12 , which is 13

Query COc1ccc2nc3n(c(=O)c2c1OC)CCc1c-3[nH]c2ccccc12 yields ratio of 0.5

// sample COc1ccc2c(=O)n3c(nc2c1)-c1[nH]c2ccccc2c1CC3 , its ratio was 11

ratio reading for C[n+]1c2n(c(=O)c3ccccc31)CCc1c-2[nH]c2ccccc12 [DEHYDROEVODIAMINE] : 3

Looking up COc1ccc2[nH]c3c(c2c1)CCn1c-3nc2ccccc2c1=O , I found its ratio recorded as 0.6

Entry CN1c2ccccc2C(=O)N2CCc3c([nH]c4ccccc34)[C@@H]21 ; ratio = 2

// field: ratio; key: COc1ccc2c(=O)n3c(nc2c1OC)-c1[nH]c2ccccc2c1CC3 ; value = 33

For reference, reported ratio for COc1ccc2nc3n(c(=O)c2c1)CCc1c-3[nH]c2ccccc12 stands at 5

What the record says about O=c1c2cc(Br)ccc2nc2n1CCc1c-2[nH]c2ccccc12 : ratio is 16

response.value for O=c1c2cc(Cl)ccc2nc2n1CCc1c-2[nH]c2ccccc12 (field: ratio) = 64

meta.source: ChEMBL document CHEMBL1136132
